Entries and their GI50 values follow.
# System: UO-31
# assay_comment: NCI tumour cell line growth inhibition, 48 h
The source made the active and inactive calls. Rule as the data show it: active = GI50 up to about 1.1 µM and inactive = higher.

Examples with their reported GI50 follow.
Cc1n[nH]c(=O)n1-n1cccc1 ... > 100 µM (inactive)
COc1cc(C2(C)SCCCS2)c(I)c(OC)c1OC ... > 100 µM (inactive)
CC(C)(C)C(=O)OC12/C(=N/O)CCCCCC1c1ccccc12 (stereo unspecified) ... 17.1 µM (inactive)
COc1ccccc1N1C(=O)/C(=C\c2cccc(Oc3ccccc3)c2)SC1c1ccccc1 (stereo unspecified) ... 51.3 µM (inactive)
CC(=O)OCc1cn(S(=O)(=O)c2ccc(C)cc2)cn1 ... > 100 µM (inactive)

GI50 value, target or system UO-31, for COc1cccc(/C=C/c2ccc(S(N)(=O)=O)cc2)c1 : 18.6 µM (inactive)

Entry source: ChEMBL document CHEMBL1201862
